// provenance: ChEMBL document CHEMBL1137573

target-entity: Prostaglandin G/H synthase 1 (Homo sapiens, UniProt P23219)
Sequence (P23219 whole entry): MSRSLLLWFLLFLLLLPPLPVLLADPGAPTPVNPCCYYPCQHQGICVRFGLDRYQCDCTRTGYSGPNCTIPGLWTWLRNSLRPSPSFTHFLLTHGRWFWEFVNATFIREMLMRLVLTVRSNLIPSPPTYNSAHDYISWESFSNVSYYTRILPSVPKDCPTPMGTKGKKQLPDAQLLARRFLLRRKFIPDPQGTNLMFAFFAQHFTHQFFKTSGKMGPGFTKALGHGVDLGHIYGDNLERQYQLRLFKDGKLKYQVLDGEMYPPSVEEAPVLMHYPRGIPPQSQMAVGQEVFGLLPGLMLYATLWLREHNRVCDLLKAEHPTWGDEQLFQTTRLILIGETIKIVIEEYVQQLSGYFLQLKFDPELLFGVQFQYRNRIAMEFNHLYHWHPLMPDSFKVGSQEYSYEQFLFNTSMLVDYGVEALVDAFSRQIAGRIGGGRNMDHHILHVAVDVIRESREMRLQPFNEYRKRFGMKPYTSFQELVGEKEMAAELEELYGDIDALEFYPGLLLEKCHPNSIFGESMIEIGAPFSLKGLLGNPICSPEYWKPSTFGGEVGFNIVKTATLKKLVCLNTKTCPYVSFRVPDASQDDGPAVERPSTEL
measurement-protocol: Inhibition of COX1 in human whole blood assessed as TXB2 production
measured-attribute: pIC50
One number for each entry, as −log10 of the molar value.

Short answer for "CCOC(=O)Cc1cc(-c2ccc(S(C)(=O)=O)cc2)n(-c2cccc(F)c2)c1C" : pIC50 was 4.69

----------
target-entity: Prostaglandin G/H synthase 1 (Mus musculus, UniProt P22437)
Sequence (P22437 whole entry): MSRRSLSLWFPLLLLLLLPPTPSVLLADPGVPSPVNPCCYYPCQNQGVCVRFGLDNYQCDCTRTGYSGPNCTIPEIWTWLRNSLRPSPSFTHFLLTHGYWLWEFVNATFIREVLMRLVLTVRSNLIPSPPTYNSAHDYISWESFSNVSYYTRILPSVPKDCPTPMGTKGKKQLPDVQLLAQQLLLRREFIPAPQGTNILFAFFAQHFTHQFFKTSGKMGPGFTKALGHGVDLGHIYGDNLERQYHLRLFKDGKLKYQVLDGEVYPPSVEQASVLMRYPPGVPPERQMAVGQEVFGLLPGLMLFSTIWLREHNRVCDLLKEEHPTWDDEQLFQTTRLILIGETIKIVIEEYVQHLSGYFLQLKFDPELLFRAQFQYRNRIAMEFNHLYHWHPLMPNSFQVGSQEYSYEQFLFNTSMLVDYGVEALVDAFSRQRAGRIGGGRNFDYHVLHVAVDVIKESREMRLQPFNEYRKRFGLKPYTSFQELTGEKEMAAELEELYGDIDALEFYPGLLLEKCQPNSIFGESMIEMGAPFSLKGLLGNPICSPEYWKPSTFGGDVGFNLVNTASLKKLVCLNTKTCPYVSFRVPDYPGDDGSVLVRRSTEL
measurement-protocol: Inhibition of COX1 in mouse J774 cells assessed as arachidonic acid-induced PGE2 levels by radio immunoassay
measured-attribute: IC50

{"structure-string": "CCOC(=O)Cc1cc(-c2ccc(S(C)(=O)=O)cc2)n(-c2cccc(F)c2)c1C", "measured-attribute": "IC50", "result": "> 100 µM"}
{"structure-string": "CCOC(=O)Cc1cc(-c2ccc(F)c(F)c2)n(-c2ccc(S(C)(=O)=O)cc2)c1C", "measured-attribute": "IC50", "result": "> 100 µM"}
{"structure-string": "CCOC(=O)Cc1cc(-c2ccc(S(C)(=O)=O)cc2)n(-c2ccc(OC)cc2)c1C", "measured-attribute": "IC50", "result": "> 100 µM"}
{"structure-string": "CCOC(=O)Cc1cc(-c2ccc(F)cc2)n(-c2ccc(S(C)(=O)=O)cc2)c1C", "measured-attribute": "IC50", "result": "> 100 µM"}

Param item: "CCOC(=O)Cc1cc(-c2ccc(OC)cc2)n(-c2ccc(S(C)(=O)=O)cc2)c1C" ; param system: Prostaglandin G/H synthase 1 (Mus musculus, UniProt P22437); output IC50: > 100 µM
